src = ChEMBL document CHEMBL3988442

The reader will find reported Percent Effect values listed item by item below.
Test system: Wolbachia pipientis
protocol-text: Anti-Wolbachia Cell-Based Screen
Type: functional
Design: scale not given: in the data most compounds retested in dose-response had high values
setup-conditions: 5 µM
The whole screen tested about 48,000 compounds, of which about 13,000 (27%) showed an effect of 50% or more. The list shows a part of the results.
Write the value in % as a bare number.

{"compound": "O=c1[nH][nH]cc1-c1ccnc(NCCc2cccnc2)n1", "unit": "%", "Percent Effect": 116.1}

# Percent Effect lookup, item c1cc(CN2CCC(CCn3cccn3)CC2)cc(Cn2cccn2)c1 -8.775

Consider the compound shown here: O=C(CSc1ccc(F)cc1)NS(=O)(=O)c1ccc2c(c1)OCCO2 What is its recorded Percent Effect? -12.15

Param item = CCc1cnc(CCNC(=O)N2CCCC(c3ncc[nH]3)C2)s1 (stereo unspecified) ; retrieve measured Percent Effect. -8.688

---

Test system: Wolbachia pipientis
protocol-text: Anti-Wolbachia Cell-Based Screen
Format: functional
Set-up: scale not given: in the data most compounds retested in dose-response had high values
setup-conditions: 5 µM
Screen size: about 48,000 compounds; about 13,000 (27%) showed an effect of 50% or more. The list shows a part of the results.
assay-metric: Percent Effect (%)
Respond numerically; units are % and should not be typed.

Worked set:
{"compound": "CCS(=O)(=O)c1ccc2oc([C@H]3CCN(Cc4ccccc4)C3)nc2c1", "target": "Wolbachia pipientis", "Percent Effect, %": -9.259}
{"compound": "CC(c1ccc(-c2cnc(N)nc2)cc1)N1CCOCC1 (stereo not given)", "target": "Wolbachia pipientis", "Percent Effect, %": 42.28}
{"compound": "CCc1nc(CN2CCCN(Cc3cnn(C)c3)CC2)no1", "target": "Wolbachia pipientis", "Percent Effect, %": -7.215}
{"compound": "COCCN1CCCC(O)(CN2CCN(c3ncccc3C)CC2)C1=O (stereo not given)", "target": "Wolbachia pipientis", "Percent Effect, %": -16.41}
{"compound": "Cc1cnc(C(=O)N2CCC(COCc3ccccc3)C2)cn1 (stereo not given)", "target": "Wolbachia pipientis", "Percent Effect, %": 0.6759}

// returns reported Percent Effect for input CCC(C)Oc1ccccc1CN1Cc2ncccc2C1=O (stereo not given) 3.69

Requested read-out: Percent Effect. Entry: CCC(CC)c1cc(CNC(=O)N2CCOC(C)C2)on1 (stereo not given) 0.178

Need Percent Effect, item Cc1cc(C(=O)N2C[C@@H]3[C@@H](C2)OCC(=O)N3CC2CC2)no1 15.73

What value of Percent Effect has been reported for the following compound? O=C(CN1CCCS1(=O)=O)Nc1ccc(OC2CCCC2)cc1 -0.8772

Percent Effect for CC(C)(C)C(=O)N1CCC(COCc2ccccc2)C1 (stereo not given) ? 14.31

Tell me the measured Percent Effect of Cc1ccccc1S(=O)(=O)Cc1nsc(N(C)C)n1 , please. -10.46

Data request, read-out Percent Effect, for CNC(=O)c1sccc1S(=O)(=O)NC -5.377

Data request, read-out Percent Effect, for O=C(Cc1cccs1)NCC1Cn2nnc(-c3ccoc3)c2CO1 (stereo not given) 6.925

Any idea what Percent Effect was measured for O=C(O)COc1ccc(CN2CCCC(Cc3cccnc3)C2)cc1 (stereo not given) ? 125.7

Name the recorded Percent Effect for Cc1cc(NC(=O)c2nc(N3CCCC3)ncc2Cl)ccc1Br . 7.259

---

Let's look at some molecules and their measured Percent Effect.
System: Wolbachia pipientis
protocol-text: Anti-Wolbachia Cell-Based Screen
Type: functional
Design: scale not given: in the data most compounds retested in dose-response had high values
setup-conditions: 5 µM
Hit rate of the full screen: of about 48,000 compounds, about 13,000 (27%) showed an effect of 50% or more. Some of the results follow.
# unit: % | format: bare number

Some solved entries appear below for comparison.
{"structure-string": "Cn1cccc1C(=O)NCc1cn2c(n1)CN(Cc1ccccn1)CC2.O=C(O)C(F)(F)F.O=C(O)C(F)(F)F", "target": "Wolbachia pipientis", "assay-metric": "Percent Effect", "meas-value": -5.455}
{"structure-string": "Cc1nnc(N2C[C@H](Oc3ccccn3)[C@H]3OCCC[C@H]32)s1.O=C(O)C(F)(F)F.O=C(O)C(F)(F)F", "target": "Wolbachia pipientis", "assay-metric": "Percent Effect", "meas-value": -4.759}
{"structure-string": "CN1CCN(Cc2cn3c(n2)CN(CC2CC2)CC3)CC1", "target": "Wolbachia pipientis", "assay-metric": "Percent Effect", "meas-value": 0.4207}
{"structure-string": "c1cncc(CN2CCn3cc(CN4CCCCC4)nc3C2)c1", "target": "Wolbachia pipientis", "assay-metric": "Percent Effect", "meas-value": 99.27}
{"structure-string": "CS(=O)(=O)NCc1cn2c(n1)CN(Cc1cccnc1)CC2.O=C(O)C(F)(F)F.O=C(O)C(F)(F)F", "target": "Wolbachia pipientis", "assay-metric": "Percent Effect", "meas-value": 116.6}

Could you tell me which Percent Effect is on file for CS(=O)(=O)NCc1cn2c(n1)CN(Cc1ccoc1)CC2.O=C(O)C(F)(F)F ? 2.843

---

Tested on: Wolbachia pipientis
protocol-text: Anti-Wolbachia Cell-Based Screen
Type: functional
Set-up: scale not given: in the data most compounds retested in dose-response had high values
setup-conditions: 5 µM
In all, about 48,000 compounds went through this assay and about 13,000 (27%) showed an effect of 50% or more. The list shows a part of the results.
Listed here are molecules together with their documented Percent Effect.
Record the value in %, omitting the unit from your answer.

Example cases with answers are listed next.
{"molecule": "Cc1cccc(CN2C[C@@H]3COC[C@]3(CNC(=O)c3ccsc3)C2)n1.O=C(O)C(F)(F)F.O=C(O)C(F)(F)F", "target": "Wolbachia pipientis", "meas-value": 8.722}
{"molecule": "CN1CCC(Cc2cc(Nc3ncccn3)ncn2)CC1", "target": "Wolbachia pipientis", "meas-value": -2.002}
{"molecule": "CCCc1cc(C(=O)N(Cc2cccnc2)C[C@@H]2CCC(=O)N2)no1", "target": "Wolbachia pipientis", "meas-value": -10.16}
{"molecule": "O=C(CCc1nccs1)N1CCCC(n2cccn2)C1 (configuration not stated)", "target": "Wolbachia pipientis", "meas-value": 73.36}

For Wolbachia pipientis, provide Percent Effect of Cc1[nH]nc2ncc(C(=O)N3CCN(CC(C)C)CC3)cc12 please. 0.1242

Query Percent Effect on Wolbachia pipientis for Fc1ccc(-c2noc([C@@H]3Cc4nc[nH]c4CN3)n2)cc1 -11.77

What measured Percent Effect is associated with O=C(NCCc1cccnc1)NC1CCOC2(CCCCC2)C1 (configuration not stated) on Wolbachia pipientis? -5.946

# query: Percent Effect | item CCc1nc(C)c(-c2nccn2CC2CCCCO2)[nH]1 (configuration not stated) | system: Wolbachia pipientis -5.573

Lab request: please report Percent Effect under test system Wolbachia pipientis for Cc1nc(CNC(C)c2cccc(N3CCCC3=O)c2)cs1.Cl (configuration not stated) -6.766

Look up Percent Effect with Wolbachia pipientis for this molecule: c1ccc2oc(N3CCCC4(CCOC4)C3)nc2c1 (configuration not stated) -10.39

Notebook entry, Wolbachia pipientis assay: Percent Effect of Cc1ccc(C)c(C(NC(=O)C2CC2)c2cccnc2)c1 (configuration not stated) = ? -2.241

# get_value(readout= Percent Effect, system= Wolbachia pipientis) for COc1ccc(CN2C[C@@H](O)[C@](O)(CNC(=O)c3ccccn3)C2)cc1 112

---

System: Wolbachia pipientis
protocol-text: Anti-Wolbachia Cell-Based Screen
Assay type: functional
Parameters: scale not given: in the data most compounds retested in dose-response had high values
setup-conditions: 5 µM
Among all 48,000 compounds or so, about 13,000 (27%) showed an effect of 50% or more. The list shows a part of the results.
Measured Percent Effect values are reported for all entries that follow.

For orientation, consider the following solved cases.
{"molecule": "CCN1C(=O)CCC12CCCN(S(=O)(=O)c1cccc(C)c1)CC2 (stereo unspecified)", "Percent Effect": "-13.05%"}
{"molecule": "Cc1cccc(S(=O)(=O)N2CCCc3c(c(=O)n(C)n3C)C2)c1", "Percent Effect": "-4.559%"}
{"molecule": "Cc1cccc(N(CCC(N)=O)CC(=O)Nc2ccccc2)c1", "Percent Effect": "2.508%"}
{"molecule": "COc1nn(C)cc1C(=O)NCC(=O)NCc1ccccn1", "Percent Effect": "5.267%"}
{"molecule": "O=C(NCc1ccccn1)N(Cc1ccc(F)cc1F)C1CC1", "Percent Effect": "-2.472%"}
{"molecule": "O=C(CSc1nnc[nH]1)NCc1cccs1", "Percent Effect": "-6.872%"}
{"molecule": "Cc1nc(CCNc2nc(N(C)C)nc3c2CCCC3)cc(=O)[nH]1", "Percent Effect": "13.62%"}
{"molecule": "Cc1nc(O)cc(CCNc2nc(N(C)C)nc(C)c2C)n1", "Percent Effect": "19.28%"}

What does the record list as Percent Effect for c1ccc(-c2nc3c(c(NCCc4c[nH]cn4)n2)CCNC3)cc1 ? 7.707%

Which Percent Effect value is on record for CNC(=O)[C@@]12CCO[C@@H]1CCN(S(=O)(=O)c1cccc(F)c1)C2 ? -9.413%

Given the molecule CC(C)CCN1C(=O)CC(N(C)Cc2nc3ccccc3c(=O)[nH]2)C1=O (stereo unspecified) , what is its reported Percent Effect? -3.315%

Find the recorded Percent Effect belonging to Cc1cccc(N(CCC(N)=O)CC(=O)NC2CCCC2)c1 and report it. -5.461%

So what's the measured Percent Effect for this one? NC(=O)CCN(CC(=O)NCc1cccs1)c1ccc(F)cc1 110%

Can you share its Percent Effect? I mean this molecule: Cc1nc(C)c(C)c(NCCSc2ccccn2)n1 -2.821%

Item Cc1c(CNCc2nn(-c3ccccc3)c3c2CCC3)cc(C#N)n1C has what recorded Percent Effect? -12.67%

What Percent Effect value was documented for this molecule, Cc1ncsc1CCN(C)C(=O)c1c(O)cccc1O ? -0.9599%

Return reported Percent Effect; argument: CS(=O)(=O)N1CCCC12CCCN(S(=O)(=O)c1cccc(F)c1)C2 (stereo unspecified) 85.55%

Need Percent Effect, item Cc1nc(N(C)C)nc(NCCc2c[nH]cn2)c1C 92.29%
